The measurements presented in this section are drawn from the supplement of paper PMC10307832.

The compounds listed here are annotated with their relative viability.
test system: NCI-H358; experiment: relative viability (nuclei count vs DMSO), 5 days (fraction); higher = more cells survive; details: first compound 6.325 µM
Could you respond with only the numeric value?

# count of solved cases: 2
Cc1csc(=NC2CCCCC2)n1/N=C/c1ccc(O)c(O)c1O [MIM1] + CC(=O)Nc1cccc(-n2c(=O)n(C3CC3)c(=O)c3c(Nc4ccc(I)cc4F)n(C)c(=O)c(C)c32)c1 [Trametinib] (partner 0.02 µM) = 0.116
Cc1csc(=NC2CCCCC2)n1/N=C/c1ccc(O)c(O)c1O [MIM1] + Cc1cc(Nc2cc(N3CCN(C)CC3)nc(Sc3ccc(NC(=O)C4CC4)cc3)n2)n[nH]1 [Tozasertib] (partner 0.1 µM) = 0.0878

Task: Note down relative viability recorded for Cc1csc(=NC2CCCCC2)n1/N=C/c1ccc(O)c(O)c1O [MIM1] + Nc1ncn([C@H]2C[C@H](O)[C@@H](CO)O2)c(=O)n1 [Decitabine] (partner 2 µM)
Result: 0.148
